# Test system: Staphylococcus aureus ATCC 6538P
# assayInfo: In vitro antibacterial activity, agar dilution MIC
# Format: cell-based
# conditionLabel: code AA, BHI agar, 35-37° C., 20 to 24 hours, unit assumed
Mark yes only for Antibacterial Activity (MIC) values smaller than 0.4 µg/mL; exact matches and larger values are no.

compound="CCC1OC(=O)C(C)(O)C(=O)C(C)C(OC2OC(C)CC(N(C)C)C2O)C(C)(OC)CC(C)C(=O)C(C)C2N(CCCCc3ccccc3)C(=O)OC12C (stereo not shown)" labelclass=no
compound="CCC1OC(=O)C(C)(O)C(=O)C(C)C(OC2OC(C)CC(N(C)C)C2O)C(C)(OCC(O)CO)CC(C)C(=O)C(C)C2NC(=O)OC12C (stereo not shown)" labelclass=no
compound="CC[C@H]1OC(=O)[C@H](C)[C@@H](O[C@H]2C[C@@](C)(OC)[C@@H](O)[C@H](C)O2)[C@H](C)[C@@H](O[C@@H]2O[C@H](C)C[C@H](N(C)C)[C@H]2O)[C@](C)(O)C[C@@H](C)C(=O)[C@H](C)[C@@H](O)[C@]1(C)O [Ery. A standard, Erythromycin A, reference compound]" labelclass=yes
compound="C=CCC1(C)C(=O)OC(CC)C2(C)OC(=O)NC2C(C)C(=O)C(C)CC(C)(OCC=Cc2cnc3ccccc3c2)C(OC2OC(C)CC(N(C)C)C2O)C(C)C1=O (stereo not shown)" labelclass=no
compound="C#CCOC1(C)CC(C)C(=O)C(C)C2NC(=O)OC2(C)C(CC)OC(=O)C(C)(CC=Cc2ccccc2)C(=O)C(C)C1OC1OC(C)CC(N(C)C)C1O (stereo not shown)" labelclass=no
compound="CCC1OC(=O)C(C)(CC=Cc2ccccc2)C(=O)C(C)C(OC2OC(C)CC(N(C)C)C2O)C(C)(OC)CC(C)C(=O)C(C)C2NC(=O)OC12C (stereo not shown)" labelclass=no

This collection of values is drawn from patent US6355620B1.
